Property: pEC50; scope: individual compounds
# TARGET_OR_TEST_SYSTEM: Broad substrate specificity ATP-binding cassette transporter ABCG2 (Homo sapiens, UniProt Q9UNQ0)
# Sequence (Q9UNQ0 whole entry): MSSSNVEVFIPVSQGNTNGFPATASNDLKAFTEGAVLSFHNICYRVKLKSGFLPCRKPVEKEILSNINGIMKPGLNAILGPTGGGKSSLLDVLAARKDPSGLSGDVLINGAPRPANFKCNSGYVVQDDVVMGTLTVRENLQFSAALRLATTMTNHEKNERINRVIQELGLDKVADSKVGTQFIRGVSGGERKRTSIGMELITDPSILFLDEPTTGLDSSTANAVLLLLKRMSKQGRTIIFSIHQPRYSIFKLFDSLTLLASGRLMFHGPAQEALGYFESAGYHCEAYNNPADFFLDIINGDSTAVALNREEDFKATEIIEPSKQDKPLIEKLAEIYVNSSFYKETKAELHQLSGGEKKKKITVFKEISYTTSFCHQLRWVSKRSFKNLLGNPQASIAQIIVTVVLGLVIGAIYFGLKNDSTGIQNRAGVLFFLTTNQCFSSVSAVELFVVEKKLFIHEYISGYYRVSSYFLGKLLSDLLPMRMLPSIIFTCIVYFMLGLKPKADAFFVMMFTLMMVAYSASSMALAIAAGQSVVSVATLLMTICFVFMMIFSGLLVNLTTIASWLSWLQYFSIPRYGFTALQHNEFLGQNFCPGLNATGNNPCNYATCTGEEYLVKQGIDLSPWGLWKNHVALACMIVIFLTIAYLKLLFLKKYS
# TEST_SUMMARY: Inhibition of ABCG2 (unknown origin)-mediated mitoxantrone efflux
Just so you know, pEC50 here is -log10 of the concentration in molar units; reply with that number alone.

COMPOUND	pEC50
O=C1CC(c2ccccc2)Cc2c1c1c(n2Cc2ccccc2)-c2ccccc2C1=O (stereo not drawn)	6.02
Cc1cc(=O)c2c3c(=O)c4ccccc4c3n(CCc3ccccc3)c2c1=O	6.08

Now turn to the next compound.
Task: Please give the documented pEC50 of `O=C1CCCc2c1c1c(n2CCCc2ccccc2)-c2ccccc2C1=O`
Output: 6.10
